Test system: smallflower flatsedge (Cyperus difformis)
Assay: Test B flood test
Type: in vivo
Set-up: key: 0 is no effect; 10 is complete control
Conditions: Rate 125 g/ha, Postemergence, flood test
Description: At the same time, these crop and weed species were also treated with postemergence applications of test chemicals formulated in the same manner. Plants ranged in height from 2 to 18 cm (1- to 4-leaf stage) for postemergence treatments. […] Treated plants and controls were maintained in a greenhouse for twelve to sixteen days, after which all species were compared to controls and visually evaluated. […]
# note: exactly 5 is not below, so it is no; use yes for Plant response rating, S. Flatsedge strictly under it

| molecule | measured-on | label |
| --- | --- | --- |
| COC(c1cccc(C(F)(F)F)c1)c1nc(-c2ccc(C(F)(F)F)cc2)ncc1C (racemic) | smallflower flatsedge (Cyperus difformis) | yes |
| Cc1cnc(-c2ccc(C(F)(F)F)cc2)nc1Cn1cnc(C(F)(F)F)c1 | smallflower flatsedge (Cyperus difformis) | no |
| Cc1cnc(-c2cccc(C(F)(F)F)c2)nc1Cc1cccc(C(F)(F)F)c1 | smallflower flatsedge (Cyperus difformis) | yes |
| Cc1cnc(-c2ccc(C(F)(F)F)cc2)nc1C(Cl)c1cccc(C(F)(F)F)c1 (racemic) | smallflower flatsedge (Cyperus difformis) | no |

Just for reference, patent US6525001B1 is where these values come from.
